Test system: PC-14
Assay: relative viability (nuclei count vs DMSO), 5 days (fraction); higher = more cells survive
Details: first compound 0.1 µM
Reported relative viability values follow for various compounds
Provide a numeric answer; units are not to be included.

[
  {
    "Compound": "Cc1cn(-c2cc(NC(=O)c3ccc(C)c(Nc4nccc(-c5cccnc5)n4)c3)cc(C(F)(F)F)c2)cn1 [Nilotinib] + CC(C)C[C@H](NC(=O)[C@H](Cc1ccccc1)NC(=O)c1cnccn1)B(O)O [Bortezomib] (partner 0.002 µM)",
    "Quantitative Readout": 0.867
  }
]

# evaluate next
Q: I would be grateful if you could share the reported relative viability for Cc1cn(-c2cc(NC(=O)c3ccc(C)c(Nc4nccc(-c5cccnc5)n4)c3)cc(C(F)(F)F)c2)cn1 [Nilotinib] + Nc1ncn([C@H]2C[C@H](O)[C@@H](CO)O2)c(=O)n1 [Decitabine] (partner 2 µM) .
Result: 0.266

----------
Reported relative viability values follow for various compounds
Tested on: PC-3 [JPC-3]
Assay: relative viability (nuclei count vs DMSO), 5 days (fraction); higher = more cells survive
Conditions: first compound 0.8 µM
Provide a numeric answer; units are not to be included.

[
  {
    "Compound": "Nc1cccc2c1CN(C1CCC(=O)NC1=O)C2=O (configuration not stated) [Lenalidomide] + NC(=O)Nc1cc(-c2cccc(F)c2)sc1C(=O)N[C@H]1CCCNC1 [AZD7762] (partner 0.2 µM)",
    "relative viability": 0.467
  },
  {
    "Compound": "Nc1cccc2c1CN(C1CCC(=O)NC1=O)C2=O (configuration not stated) [Lenalidomide] + Nc1nc2[nH]cc(CCc3ccc(C(=O)N[C@@H](CCC(=O)O)C(=O)O)cc3)c2c(=O)[nH]1 [Pemetrexed] (partner 0.2 µM)",
    "relative viability": 0.755
  },
  {
    "Compound": "Nc1cccc2c1CN(C1CCC(=O)NC1=O)C2=O (configuration not stated) [Lenalidomide] + CC(=O)c1c(C)c2cnc(Nc3ccc(N4CCNCC4)cn3)nc2n(C2CCCC2)c1=O [Palbociclib] (partner 0.5 µM)",
    "relative viability": 0.511
  },
  {
    "Compound": "Nc1cccc2c1CN(C1CCC(=O)NC1=O)C2=O (configuration not stated) [Lenalidomide] + CS(=O)(=O)N1CCN(Cc2cc3nc(-c4cccc5[nH]ncc45)nc(N4CCOCC4)c3s2)CC1 [Pictilisib] (partner 1 µM)",
    "relative viability": 0.609
  },
  {
    "Compound": "Nc1cccc2c1CN(C1CCC(=O)NC1=O)C2=O (configuration not stated) [Lenalidomide] + CC(=O)Nc1cccc(-n2c(=O)n(C3CC3)c(=O)c3c(Nc4ccc(I)cc4F)n(C)c(=O)c(C)c32)c1 [Trametinib] (partner 0.02 µM)",
    "relative viability": 0.681
  },
  {
    "Compound": "Nc1cccc2c1CN(C1CCC(=O)NC1=O)C2=O (configuration not stated) [Lenalidomide] + CCNC(=O)c1noc(-c2cc(C(C)C)c(O)cc2O)c1-c1ccc(CN2CCOCC2)cc1 [Luminespib] (partner 0.01 µM)",
    "relative viability": 0.729
  }
]

# evaluate next
Q: Form entry - test system: PC-3 [JPC-3]; read-out: relative viability; compound: Nc1cccc2c1CN(C1CCC(=O)NC1=O)C2=O (configuration not stated) [Lenalidomide] + Cc1cc(Nc2cc(N3CCN(C)CC3)nc(Sc3ccc(NC(=O)C4CC4)cc3)n2)n[nH]1 [Tozasertib] (partner 0.1 µM)
Result: 0.899

----------
Test system: NCI-H1975
Assay: relative viability (nuclei count vs DMSO), 5 days (fraction); higher = more cells survive
Details: first compound 2 µM
Reported relative viability values follow for various compounds
Provide a numeric answer; units are not to be included.

Use these answered entries as a reference point.
[
  {
    "Compound": "Cc1csc(=NC2CCCCC2)n1/N=C/c1ccc(O)c(O)c1O [MIM1] + COc1cc2c(Oc3ccc(NC(=O)C4(C(=O)Nc5ccc(F)cc5)CC4)cc3F)ccnc2cc1OCCCN1CCOCC1 [Foretinib] (partner 0.25 µM)",
    "Assay Target": "NCI-H1975",
    "Quantitative Readout": 0.837
  },
  {
    "Compound": "Cc1csc(=NC2CCCCC2)n1/N=C/c1ccc(O)c(O)c1O [MIM1] + NC(=O)Nc1cc(-c2cccc(F)c2)sc1C(=O)N[C@H]1CCCNC1 [AZD7762] (partner 0.2 µM)",
    "Assay Target": "NCI-H1975",
    "Quantitative Readout": 0.697
  },
  {
    "Compound": "CN1CCN(CCOc2cc(OC3CCOCC3)c3c(Nc4c(Cl)ccc5c4OCO5)ncnc3c2)CC1 [Saracatinib] + COc1cc2c(Oc3ccc(NC(=O)C4(C(=O)Nc5ccc(F)cc5)CC4)cc3F)ccnc2cc1OCCCN1CCOCC1 [Foretinib] (partner 0.25 µM)",
    "Assay Target": "NCI-H1975",
    "Quantitative Readout": 0.631
  }
]

# evaluate next
Q: I would be grateful if you could share the reported relative viability for Cc1csc(=NC2CCCCC2)n1/N=C/c1ccc(O)c(O)c1O [MIM1] + CS(=O)(=O)CCNCc1ccc(-c2ccc3ncnc(Nc4ccc(OCc5cccc(F)c5)c(Cl)c4)c3c2)o1 [Lapatinib] (partner 2 µM) .
Result: 0.875

----------
System: NCI-H2085
Experiment: relative viability (nuclei count vs DMSO), 5 days (fraction); higher = more cells survive
Conditions: first compound 6.325 µM
Measure Name: relative viability
Provide a numeric answer; units are not to be included.

Use these answered entries as a reference point.
[
  {
    "Molecule": "Cc1csc(=NC2CCCCC2)n1/N=C/c1ccc(O)c(O)c1O [MIM1] + Cc1cc(Nc2cc(N3CCN(C)CC3)nc(Sc3ccc(NC(=O)C4CC4)cc3)n2)n[nH]1 [Tozasertib] (partner 0.1 µM)",
    "relative viability": 0.598
  },
  {
    "Molecule": "Cc1csc(=NC2CCCCC2)n1/N=C/c1ccc(O)c(O)c1O [MIM1] + Cc1nc(NC(=O)N2CCC[C@H]2C(N)=O)sc1-c1ccnc(C(C)(C)C(F)(F)F)c1 [Alpelisib] (partner 2 µM)",
    "relative viability": 0.84
  }
]

# evaluate next
Q: I would be grateful if you could share the reported relative viability for Cc1csc(=NC2CCCCC2)n1/N=C/c1ccc(O)c(O)c1O [MIM1] + CC(C)C[C@H](NC(=O)[C@H](Cc1ccccc1)NC(=O)c1cnccn1)B(O)O [Bortezomib] (partner 0.002 µM) .
Result: 0.952

----------
Reported relative viability values follow for various compounds
Tested on: NCI-H522
Test: relative viability (nuclei count vs DMSO), 5 days (fraction); higher = more cells survive
Conditions: first compound 8 µM

Use these answered entries as a reference point.
[
  {
    "Compound": "Nc1cccc2c1CN(C1CCC(=O)NC1=O)C2=O (centres undefined) [Lenalidomide] + N=C(N)NC(=N)NCCc1ccccc1 [Phenformin] (partner 250 µM)",
    "Assay Target": "NCI-H522",
    "relative viability": 0.573
  },
  {
    "Compound": "Nc1cccc2c1CN(C1CCC(=O)NC1=O)C2=O (centres undefined) [Lenalidomide] + Nc1ncn([C@H]2C[C@H](O)[C@@H](CO)O2)c(=O)n1 [Decitabine] (partner 2 µM)",
    "Assay Target": "NCI-H522",
    "relative viability": 0.626
  },
  {
    "Compound": "Nc1cccc2c1CN(C1CCC(=O)NC1=O)C2=O (centres undefined) [Lenalidomide] + Cc1nc(Nc2ncc(C(=O)Nc3c(C)cccc3Cl)s2)cc(N2CCN(CCO)CC2)n1 [Dasatinib] (partner 0.075 µM)",
    "Assay Target": "NCI-H522",
    "relative viability": 0.678
  }
]

Q: I would be grateful if you could share the reported relative viability for Nc1cccc2c1CN(C1CCC(=O)NC1=O)C2=O (centres undefined) [Lenalidomide] + O=C(CCCCCCC(=O)Nc1ccccc1)NO [Vorinostat] (partner 1 µM) .
Result: 0.781

----------
Tested on: BEN
Assay: relative viability (nuclei count vs DMSO), 5 days (fraction); higher = more cells survive
Details: first compound 0.001 µM
Param label: returns Criterion met when relative viability < 0.5, returns Criterion not met otherwise, including exact equality.

Worked set:
[
  {
    "Compound": "Cc1cn(-c2cc(NC(=O)c3ccc(C)c(Nc4nccc(-c5cccnc5)n4)c3)cc(C(F)(F)F)c2)cn1 [Nilotinib] + O=C(CCCCCCC(=O)Nc1ccccc1)NO [Vorinostat] (partner 1 µM)",
    "Label Value": "Criterion not met"
  },
  {
    "Compound": "Cc1cn(-c2cc(NC(=O)c3ccc(C)c(Nc4nccc(-c5cccnc5)n4)c3)cc(C(F)(F)F)c2)cn1 [Nilotinib] + N=C(N)NC(=N)NCCc1ccccc1 [Phenformin] (partner 250 µM)",
    "Label Value": "Criterion met"
  },
  {
    "Compound": "Cc1cn(-c2cc(NC(=O)c3ccc(C)c(Nc4nccc(-c5cccnc5)n4)c3)cc(C(F)(F)F)c2)cn1 [Nilotinib] + NC(=O)Nc1cc(-c2cccc(F)c2)sc1C(=O)N[C@H]1CCCNC1 [AZD7762] (partner 0.2 µM)",
    "Label Value": "Criterion not met"
  },
  {
    "Compound": "Cc1cn(-c2cc(NC(=O)c3ccc(C)c(Nc4nccc(-c5cccnc5)n4)c3)cc(C(F)(F)F)c2)cn1 [Nilotinib] + COc1cc2c(Oc3ccc(NC(=O)C4(C(=O)Nc5ccc(F)cc5)CC4)cc3F)ccnc2cc1OCCCN1CCOCC1 [Foretinib] (partner 0.25 µM)",
    "Label Value": "Criterion not met"
  },
  {
    "Compound": "Cc1cn(-c2cc(NC(=O)c3ccc(C)c(Nc4nccc(-c5cccnc5)n4)c3)cc(C(F)(F)F)c2)cn1 [Nilotinib] + Nc1nc2[nH]cc(CCc3ccc(C(=O)N[C@@H](CCC(=O)O)C(=O)O)cc3)c2c(=O)[nH]1 [Pemetrexed] (partner 0.2 µM)",
    "Label Value": "Criterion not met"
  }
]

Pending compound:
Q: Record Cc1cn(-c2cc(NC(=O)c3ccc(C)c(Nc4nccc(-c5cccnc5)n4)c3)cc(C(F)(F)F)c2)cn1 [Nilotinib] + CC1(C)CCC(c2ccc(Cl)cc2)=C(CN2CCN(c3ccc(C(=O)NS(=O)(=O)c4ccc(N[C@H](CCN5CCOCC5)CSc5ccccc5)c(S(=O)(=O)C(F)(F)F)c4)cc3)CC2)C1 [Navitoclax] (partner 0.5 µM) : is its relative viability strictly below 0.5?
Result: Criterion met
